Tested system: T1, recombinant human IL-27 (human, UniProt Q14213 21-229; Q8NEV9 29-243)
T1 construct: Bought from R&D Systems (Cat. 2526-IL); also called hIL-27; rhIL-27
T1 sequence 1: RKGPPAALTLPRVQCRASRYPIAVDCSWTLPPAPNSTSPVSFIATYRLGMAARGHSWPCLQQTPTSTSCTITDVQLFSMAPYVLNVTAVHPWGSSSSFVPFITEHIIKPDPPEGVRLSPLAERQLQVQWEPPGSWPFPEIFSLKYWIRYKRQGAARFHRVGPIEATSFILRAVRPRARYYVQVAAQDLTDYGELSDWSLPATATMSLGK
T1 sequence 2: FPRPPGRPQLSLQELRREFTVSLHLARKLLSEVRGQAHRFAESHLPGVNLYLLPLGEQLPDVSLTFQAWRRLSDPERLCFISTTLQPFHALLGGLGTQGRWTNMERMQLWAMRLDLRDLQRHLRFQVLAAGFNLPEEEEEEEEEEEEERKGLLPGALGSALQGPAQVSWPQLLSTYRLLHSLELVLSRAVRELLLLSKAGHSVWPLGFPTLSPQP
Protocol description: SPR (Biacore T200), hIL-27 on CM5 chip, single cycle, 1:1 model
This listing pairs binders with measured koff.
Respond with the bare value in s⁻¹.

Past entries and their recorded results:
[
  {
    "Binder": "Ab7.18 (antibody, human IgG1, kappa, V domains shown, human IgG1/kappa) VH: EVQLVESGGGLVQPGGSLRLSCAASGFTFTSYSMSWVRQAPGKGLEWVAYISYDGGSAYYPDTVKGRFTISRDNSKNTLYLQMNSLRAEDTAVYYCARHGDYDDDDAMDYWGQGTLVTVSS VL: DIQMTQSPSSLSASVGDRVTITCRASENIYSYLAWYQQKPGKAPKLLVYNAETLTEGVPSRFSGSGSGTDFTLTISSLQPEDFATYYCQHHYGTPLTFGQGTKLEIKR",
    "Value unit": "s⁻¹",
    "koff": 0.0019
  },
  {
    "Binder": "Ab7.9 (antibody, human IgG1, kappa, V domains shown, human IgG1/kappa) VH: EVQLVESGGGLVQPGGSLRLSCAASGFTFTSYSMSWVRQAPGKGLEWVAYISYDGGSAYYPDTVKGRFTISRDNSKNTLYLQMSSLKSEDTAMYYCARHGDYDDDDAMDYWGQGTLVTVSS VL: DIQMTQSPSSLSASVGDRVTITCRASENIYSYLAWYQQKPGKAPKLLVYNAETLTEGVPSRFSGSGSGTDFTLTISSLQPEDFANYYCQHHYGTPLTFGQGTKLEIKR",
    "Value unit": "s⁻¹",
    "koff": 0.0019
  }
]

**Query** Reported koff for Ab7.3 (antibody, human IgG1, kappa, V domains shown, human IgG1/kappa) VH: EVKLVESGGGLVQPGGSLRLSCAASGFTFTSYSMSWVRQAPGKGLEWVAYISYDGGSAYYPDTVKGRFTISRDNSKKTLYLQMSSLKSEDTAMYYCARHGDYDDDDAMDYWGQGTSVTVSS VL: DIQMTQSPASLSASVGETVTITCRASENIYSYLAWYQQKQGKSPQLLVYNAETLTEGVPSRFSGSGSGTQFSLKINSLQPEDFGNYYCQHHYGTPLTFGAGTKLDLKR : what is it?
**Result** 0.0015

**Query** Reported koff for Ab7.2 (antibody, human IgG1, kappa, V domains shown, human IgG1/kappa) VH: EVKLVESGGGLVQPGGSLKLFCAASGFTFTSYSMSWVRQTPEKRLEWVAYISYDGGSAYYPDTVKGRFSISRDNAKKTLYLQMSSLKSEDTAMYYCARHGDYDDDDAMDYWGQGTSVTVSS VL: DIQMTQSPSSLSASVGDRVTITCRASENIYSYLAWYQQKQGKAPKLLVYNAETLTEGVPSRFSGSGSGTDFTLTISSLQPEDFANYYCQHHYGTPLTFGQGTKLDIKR : what is it?
**Result** 0.0018

**Query** Reported koff for Ab7.10 (antibody, human IgG1, kappa, V domains shown, human IgG1/kappa) VH: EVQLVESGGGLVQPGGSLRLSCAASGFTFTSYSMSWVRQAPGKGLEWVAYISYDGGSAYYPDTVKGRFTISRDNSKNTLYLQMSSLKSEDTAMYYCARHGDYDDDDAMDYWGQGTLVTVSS VL: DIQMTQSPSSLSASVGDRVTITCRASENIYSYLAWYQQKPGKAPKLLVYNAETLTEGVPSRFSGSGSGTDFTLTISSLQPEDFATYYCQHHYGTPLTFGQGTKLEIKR : what is it?
**Result** 0.0018

**Query** Reported koff for Ab7.16 (antibody, human IgG1, kappa, V domains shown, human IgG1/kappa) VH: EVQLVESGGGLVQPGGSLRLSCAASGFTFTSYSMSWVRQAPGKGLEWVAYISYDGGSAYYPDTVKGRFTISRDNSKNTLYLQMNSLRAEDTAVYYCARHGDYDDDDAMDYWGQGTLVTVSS VL: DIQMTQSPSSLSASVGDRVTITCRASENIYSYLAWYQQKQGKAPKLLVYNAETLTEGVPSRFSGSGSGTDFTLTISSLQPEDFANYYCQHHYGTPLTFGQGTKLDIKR : what is it?
**Result** 0.0018

**Query** Reported koff for Ab7.5 (antibody, human IgG1, kappa, V domains shown, human IgG1/kappa) VH: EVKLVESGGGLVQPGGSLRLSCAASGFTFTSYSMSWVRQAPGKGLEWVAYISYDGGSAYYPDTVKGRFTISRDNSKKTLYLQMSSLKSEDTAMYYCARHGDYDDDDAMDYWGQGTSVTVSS VL: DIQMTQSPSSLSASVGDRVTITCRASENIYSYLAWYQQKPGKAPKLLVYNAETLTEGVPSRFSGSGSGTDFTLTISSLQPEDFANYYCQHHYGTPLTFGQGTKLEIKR : what is it?
**Result** 0.0018
